Data origin, for the record: patent US9663516B2

Target: bovine cardiac myosin (Bos taurus)
Experiment: Myosin inhibition assay (PK/LDH-coupled ATPase, bovine cardiac myofibrils)
Conditions: calcium concentration giving 50% activation, pH 6.8, read-out: bcMF pCa_6 IC50
Experimental: Small molecule agents were assessed for their ability to inhibit the enzymatic activity of bovine cardiac myosin using a biochemical assay that couples the release of ADP (adenosine diphosphate) from cardiac myosin to an enzymatic coupling system consisting of pyruvate kinase and lactate dehydrogenase (PK/LDH) and monitoring the absorbance decrease of NADH (at 340 nm) as a function of time. PK converts ADP to ATP (adenosine triphosphate) by converting PEP (phosphoenolpyruvate) to pyruvate. […]
measuredParameter: IC50

Answered examples (5):
O=c1[nH]c2c(c(=O)n1C1CCC1)CC[C@H](c1ccccc1)N2 :: 1000 to 15000 nM
CC(C)n1c(=O)[nH]c2c(c1=O)CC[C@H](c1cccc(F)c1F)N2 :: 1000 to 15000 nM
CC(C)n1c(=O)[nH]c2c(c1=O)CC[C@H](CC1CCOCC1)N2 :: > 15000 nM
C/C=C(\C)n1c(=O)[nH]c2c(c1=O)CC[C@H](c1ccccc1)N2 :: 1000 to 15000 nM
O=c1[nH]c2c(c(=O)n1-c1cc(F)cc(F)c1)CC[C@H](C1CCCC1)N2 :: 1000 to 15000 nM

I have 2 compounds here; please give me IC50 for each one.
1. CCn1c(=O)[nH]c2c(c1=O)CC[C@@](c1ccccc1)(C1CCOCC1)N2
2. C[C@]1(c2ccccc2)CCc2c([nH]c(=O)n(-c3ccccc3)c2=O)N1

[out]
["< 1000 nM", "< 1000 nM"]

[in] I'd like to know its IC50. The compound in question is `O=c1[nH]c2c(c(=O)n1-c1cccc(F)n1)CC[C@H](c1ccccc1)N2`
[out] 1000 to 15000 nM

###

Exercise: state measured IC50 for each of the molecules provided.
target: bovine cardiac myosin (Bos taurus, UniProt Q9BE39); assay: Myosin inhibition assay (PK/LDH-coupled ATPase, bovine cardiac myofibrils); settings: calcium concentration giving 50% activation, pH 6.8, read-out: bcMF pCa_6 IC50
Sequence (Q9BE39 whole entry): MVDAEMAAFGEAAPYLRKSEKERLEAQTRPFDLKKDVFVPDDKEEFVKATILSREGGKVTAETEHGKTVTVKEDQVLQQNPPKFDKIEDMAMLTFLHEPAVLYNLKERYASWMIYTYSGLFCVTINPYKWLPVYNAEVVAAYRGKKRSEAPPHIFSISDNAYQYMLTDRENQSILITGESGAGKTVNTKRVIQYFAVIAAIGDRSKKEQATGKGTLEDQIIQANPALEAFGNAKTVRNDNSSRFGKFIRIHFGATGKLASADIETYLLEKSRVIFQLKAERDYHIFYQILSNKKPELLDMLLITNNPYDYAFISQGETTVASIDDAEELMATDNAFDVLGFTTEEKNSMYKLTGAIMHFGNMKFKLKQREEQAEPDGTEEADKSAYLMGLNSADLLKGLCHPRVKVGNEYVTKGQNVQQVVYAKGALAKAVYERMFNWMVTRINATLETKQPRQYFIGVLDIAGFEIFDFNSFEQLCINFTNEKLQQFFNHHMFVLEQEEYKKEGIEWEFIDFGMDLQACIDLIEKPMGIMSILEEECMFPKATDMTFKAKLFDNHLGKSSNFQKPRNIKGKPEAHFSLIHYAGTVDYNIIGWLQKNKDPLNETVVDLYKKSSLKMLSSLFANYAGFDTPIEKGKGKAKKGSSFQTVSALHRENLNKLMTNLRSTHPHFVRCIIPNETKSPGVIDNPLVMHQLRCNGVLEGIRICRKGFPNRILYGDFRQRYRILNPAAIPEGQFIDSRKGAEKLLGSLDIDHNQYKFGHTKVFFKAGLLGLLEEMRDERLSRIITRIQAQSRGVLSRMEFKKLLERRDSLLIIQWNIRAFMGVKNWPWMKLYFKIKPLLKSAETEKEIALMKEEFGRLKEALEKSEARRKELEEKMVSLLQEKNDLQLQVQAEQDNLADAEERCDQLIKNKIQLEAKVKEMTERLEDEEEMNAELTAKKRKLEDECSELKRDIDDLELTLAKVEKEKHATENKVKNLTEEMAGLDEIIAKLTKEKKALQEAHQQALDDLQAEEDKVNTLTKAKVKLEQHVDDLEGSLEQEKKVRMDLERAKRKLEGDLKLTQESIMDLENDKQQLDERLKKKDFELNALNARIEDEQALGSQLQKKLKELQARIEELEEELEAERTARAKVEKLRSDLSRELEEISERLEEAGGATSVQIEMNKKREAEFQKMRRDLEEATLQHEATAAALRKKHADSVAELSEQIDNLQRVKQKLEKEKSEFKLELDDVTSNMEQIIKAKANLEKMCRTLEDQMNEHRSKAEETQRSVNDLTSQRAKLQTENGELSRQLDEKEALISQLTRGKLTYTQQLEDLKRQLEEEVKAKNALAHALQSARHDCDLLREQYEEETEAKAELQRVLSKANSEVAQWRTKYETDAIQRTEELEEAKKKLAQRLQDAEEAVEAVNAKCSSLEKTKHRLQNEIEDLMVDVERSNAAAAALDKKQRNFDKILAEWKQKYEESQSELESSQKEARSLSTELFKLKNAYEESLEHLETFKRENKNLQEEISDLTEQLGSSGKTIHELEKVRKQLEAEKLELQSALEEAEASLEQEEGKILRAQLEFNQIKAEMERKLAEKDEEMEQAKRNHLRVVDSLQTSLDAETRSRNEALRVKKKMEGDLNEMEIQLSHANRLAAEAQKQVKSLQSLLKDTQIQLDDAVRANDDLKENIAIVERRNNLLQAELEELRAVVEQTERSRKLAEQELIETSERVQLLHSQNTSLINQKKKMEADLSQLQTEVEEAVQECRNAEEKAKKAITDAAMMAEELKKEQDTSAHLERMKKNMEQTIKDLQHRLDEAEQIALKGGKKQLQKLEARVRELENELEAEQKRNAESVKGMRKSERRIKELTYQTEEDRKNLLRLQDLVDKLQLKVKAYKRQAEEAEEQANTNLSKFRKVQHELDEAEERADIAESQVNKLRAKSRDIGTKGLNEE
Sequence (P85100 whole entry partner): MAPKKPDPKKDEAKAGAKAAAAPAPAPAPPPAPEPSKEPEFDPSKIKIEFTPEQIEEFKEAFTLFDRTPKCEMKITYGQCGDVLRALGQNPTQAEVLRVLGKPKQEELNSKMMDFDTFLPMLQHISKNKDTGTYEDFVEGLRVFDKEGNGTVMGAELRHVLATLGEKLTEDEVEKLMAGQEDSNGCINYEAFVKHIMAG
Sequence (Q3SZE5 whole entry partner): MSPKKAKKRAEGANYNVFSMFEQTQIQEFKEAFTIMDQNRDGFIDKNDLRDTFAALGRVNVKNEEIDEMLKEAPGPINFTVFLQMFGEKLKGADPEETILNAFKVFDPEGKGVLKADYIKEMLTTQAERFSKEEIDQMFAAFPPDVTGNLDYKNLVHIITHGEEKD

Answered examples (5):
Cc1cccc(-n2c(=O)[nH]c3c(c2=O)CC[C@H](C2CCC(F)(F)CC2)N3)n1 :: 1 to 15 µM
O=c1[nH]c2c(c(=O)n1-c1ccccc1)CC[C@@H](c1ccccc1F)N2 :: > 15 µM
O=c1[nH]c2c(c(=O)n1C1CCC1)CC[C@H](c1ccc(F)c(F)c1)N2 :: 1 to 15 µM
CC(C)[C@H]1CCc2c([nH]c(=O)n(-c3cc(F)cc(F)c3)c2=O)N1 :: > 15 µM
CC(C)n1c(=O)[nH]c2c(c1=O)CC[C@H](C1CCOCC1)N2 :: 1 to 15 µM

I have 2 molecules here; please give me IC50 for each one.
1. CC1(n2c(=O)[nH]c3c(c2=O)CC[C@H](c2cc(F)ccc2F)N3)CC1
2. CCn1c(=O)[nH]c2c(c1=O)CC[C@H](C1CCC(F)(F)CC1)N2

[out]
1 to 15 µM
1 to 15 µM

I have 3 molecules here; please give me IC50 for each one.
1. CCn1c(=O)[nH]c2c(c1=O)CC[C@H](c1ccc(F)cc1F)N2
2. COC(=O)N1CCC([C@H]2CCc3c([nH]c(=O)n(C(C)C)c3=O)N2)CC1
3. CCn1c(=O)[nH]c2c(c1=O)CC[C@](c1ccccc1)(C1CCOCC1)N2

[out]
1. 1 to 15 µM
2. 1 to 15 µM
3. 1 to 15 µM

I have 6 molecules here; please give me IC50 for each one.
1. CC(C)n1c(=O)[nH]c2c(c1=O)CC(F)(F)[C@@H](c1cccc(Cl)c1)N2
2. CC[C@H](C)n1c(=O)[nH]c2c(c1=O)CC[C@H](c1ccc(F)c(F)c1)N2
3. O=c1[nH]c2c(c(=O)n1CC(F)(F)F)CC[C@H](c1ccc(F)c(F)c1)N2
4. O=c1[nH]c2c(c(=O)n1CC(F)(F)F)CC[C@@H](c1ccccc1)N2
5. CC(C)n1c(=O)[nH]c2c(c1=O)CC(F)(F)[C@@H](c1ccccc1)N2
6. CCn1c(=O)[nH]c2c(c1=O)CCC[C@H](c1ccc(F)c(F)c1)N2

[out]
> 15 µM
1 to 15 µM
1 to 15 µM
> 15 µM
> 15 µM
> 15 µM

[in] I'd like to know its IC50. The molecule in question is `O=c1[nH]c2c(c(=O)n1CC1CC1)CC[C@H](C1CCC(F)(F)CC1)N2`
[out] 1 to 15 µM
